test: Clearance in mouse at 2 mg/kg, iv and 10 mg/kg, po; format: ADME, organism-based; settings: in vivo
REPORTED_ENDPOINT: clearance (mL/min/kg)
Give a bare numeral; the unit mL/min/kg is implied.

The compound listed as Cc1nc(C2CCN(C(=O)[C@@H]3CN(C(C)(C)C)C[C@H]3c3ccc(F)cc3F)CC2)n(-c2ccc(Cl)c(C)c2)n1 shows clearance equal to 128

---

assay: Oral bioavailability in mouse at 1 mg/kg; type: ADME, organism-based; conditions: in vivo
REPORTED_ENDPOINT: bioavailability (%)
Give a bare numeral; the unit % is implied.

The compound listed as Cc1cc(C2CCN(C(=O)[C@@H]3CN(C(C)(C)C)C[C@H]3c3ccc(F)cc3F)CC2)n(-c2ccc(F)cc2F)n1 shows bioavailability equal to 54

The compound listed as Cc1cc(C2CCN(C(=O)[C@@H]3CN(C(C)(C)C)C[C@H]3c3ccc(F)cc3F)CC2)n(-c2ccc(Cl)cc2C)n1 shows bioavailability equal to 37

The compound listed as Cc1cc(C2CCN(C(=O)[C@@H]3CN(C(C)(C)C)C[C@H]3c3ccc(F)cc3F)CC2)n(-c2ccc(Cl)c(Cl)c2)n1 shows bioavailability equal to 38

The compound listed as Cc1cc(C2CCN(C(=O)[C@@H]3CN(C(C)(C)C)C[C@H]3c3ccc(F)cc3F)CC2)n(-c2ccc(Cl)cc2Cl)n1 shows bioavailability equal to 61

The compound listed as Cc1cc(C2CCN(C(=O)[C@@H]3CNC[C@H]3c3ccc(F)cc3F)CC2)n(-c2cc(Cl)ccc2Cl)n1 shows bioavailability equal to 23

The compound listed as Cc1nc(C2CCN(C(=O)[C@@H]3CN(C(C)(C)C)C[C@H]3c3ccc(F)cc3F)CC2)n(-c2ccc(Cl)cc2)n1 shows bioavailability equal to 48

The compound listed as Cc1cc(C2CCN(C(=O)[C@@H]3CN(C(C)(C)C)C[C@H]3c3ccc(F)cc3F)CC2)n(-c2ccc(F)c(Cl)c2)n1 shows bioavailability equal to 59

The compound listed as Cc1cc(C2CCN(C(=O)[C@@H]3CN(C(C)(C)C)C[C@H]3c3ccc(F)cc3F)CC2)n(-c2cc(Cl)ccc2Cl)n1 shows bioavailability equal to 31

The compound listed as CC(C)(C)N1C[C@@H](C(=O)N2CCC(c3nnnn3-c3ccc(Cl)cc3)CC2)[C@H](c2ccc(F)cc2F)C1 shows bioavailability equal to 6.4

The compound listed as Cc1cc(-n2nc(C3CCN(C(=O)[C@@H]4CN(C(C)(C)C)C[C@H]4c4ccc(F)cc4F)CC3)nc2C)ccc1Cl shows bioavailability equal to 18

The compound listed as Cc1nc(C2CCN(C(=O)[C@H]3CN(C(C)(C)C)C[C@@H]3c3ccc(F)cc3F)CC2)n(-c2ccc(Cl)c(C)c2)n1 shows bioavailability equal to 13

---

experiment: Drug uptake in C57 mouse brain at 10 mg/kg, po after 20 hrs by LC/MS analysis; format: ADME, organism-based; parameters: dose 10 mg/kg, route oral; conditions: read-out: Drug uptake
REPORTED_ENDPOINT: concentration at 20 h (nM)
Give a bare numeral; the unit nM is implied.

The molecule listed as CC(C)(C)N1C[C@@H](C(=O)N2CCC(c3ccnn3-c3ccc(F)c(Cl)c3)CC2)[C@H](c2ccc(F)cc2F)C1 shows concentration at 20 h equal to 21

---

target: Mus musculus; test: Ex-vivo inhibition of PrCP in heat inactivated 100% plasma of po dosed mouse by FRET analysis; type: functional, organism-based
REPORTED_ENDPOINT: Ki
Please format your answer as a value with the unit trailing.

The molecule listed as Cc1cc(C2CCN(C(=O)[C@@H]3CNC[C@H]3c3ccc(F)cc3F)CC2)n(-c2ccc(F)c(Cl)c2)n1 shows Ki equal to 54.5 nM

The molecule listed as CC(C)(C)N1C[C@@H](C(=O)N2CCC(c3ccnn3-c3ccc(F)c(Cl)c3)CC2)[C@H](c2ccc(F)cc2F)C1 shows Ki equal to 1.4 nM

The molecule listed as Cc1cc(C2CCN(C(=O)[C@@H]3CN(C(C)(C)C)C[C@H]3c3ccc(F)cc3F)CC2)n(-c2ccc(Cl)cc2Cl)n1 shows Ki equal to 6 nM

---

test: Ratio of drug level in brain to plasma in C57 mouse at 10 mg/kg, po after 20 hrs by LC/MS analysis; format: ADME, organism-based; set-up: dose 10 mg/kg, route oral; conditions: read-out: BPR
REPORTED_ENDPOINT: Kp at 20 h
Lab note: record just the number, no unit beside it.

The compound listed as CC(C)(C)N1C[C@@H](C(=O)N2CCC(c3ccnn3-c3ccc(F)c(Cl)c3)CC2)[C@H](c2ccc(F)cc2F)C1 shows Kp at 20 h equal to 0.11

---

target: Mus musculus; assay: Ex-vivo inhibition of PrCP in heat inactivated 100% plasma of po dosed mouse by FRET analysis; type: functional, organism-based
# label = Satisfied if Ki < 20 nM else Not satisfied

Does O=C([C@@H]1CNC[C@H]1c1ccc(F)cc1F)N1CCC(c2ccnn2-c2ccc(F)c(Cl)c2)CC1 have Ki strictly under 20 nM? Not satisfied

Does Cc1cc(C2CCN(C(=O)[C@@H]3CN(C(C)(C)C)C[C@H]3c3ccc(F)cc3F)CC2)n(-c2ccc(Cl)c(F)c2)n1 have Ki strictly under 20 nM? Not satisfied

Does Cc1cc(C2CCN(C(=O)[C@@H]3CN(C(C)(C)C)C[C@H]3c3ccc(F)cc3F)CC2)n(-c2cc(Cl)ccc2Cl)n1 have Ki strictly under 20 nM? Satisfied

Does Cc1cc(C2CCN(C(=O)[C@@H]3CN(C(C)(C)C)C[C@H]3c3ccc(F)cc3F)CC2)n(-c2ccc(F)c(Cl)c2)n1 have Ki strictly under 20 nM? Satisfied

Does Cc1cc(C2CCN(C(=O)[C@@H]3CN(C(C)(C)C)C[C@H]3c3ccc(F)cc3F)CC2)n(-c2cc(Cl)ccc2F)n1 have Ki strictly under 20 nM? Satisfied

Does C[C@@H](c1ccc(-c2ccccc2)cc1)[C@H](NC(=O)C(C)(C)N)C(=O)N1CCC[C@H]1c1nc2cc(Cl)c(Cl)cc2[nH]1 have Ki strictly under 20 nM? Satisfied

Does Cc1nc(C2CCN(C(=O)[C@H]3CN(C(C)(C)C)C[C@@H]3c3ccc(F)cc3F)CC2)n(-c2ccc(Cl)c(C)c2)n1 have Ki strictly under 20 nM? Satisfied

---

test: Clearance in mouse at 0.5 mg/kg, iv and 1 mg/kg, po; assay type: ADME, organism-based; settings: in vivo
REPORTED_ENDPOINT: clearance (mL/min/kg)
Give a bare numeral; the unit mL/min/kg is implied.

The compound listed as Cc1cc(C2CCN(C(=O)[C@@H]3CN(C(C)(C)C)C[C@H]3c3ccc(F)cc3F)CC2)n(-c2ccc(C)c(Cl)c2)n1 shows clearance equal to 165

The compound listed as Cc1nc(C2CCN(C(=O)[C@@H]3CN(C(C)(C)C)C[C@H]3c3ccc(F)cc3F)CC2)n(-c2ccc(Cl)cc2)n1 shows clearance equal to 96

The compound listed as Cc1cc(C2CCN(C(=O)[C@@H]3CN(C(C)(C)C)C[C@H]3c3ccc(F)cc3F)CC2)n(-c2cc(Cl)ccc2Cl)n1 shows clearance equal to 48

---

assay: Volume of distribution in mouse at 2 mg/kg, iv and 10 mg/kg, po; format: ADME, organism-based; conditions: in vivo
REPORTED_ENDPOINT: Vd (L/kg)
Give a bare numeral; the unit L/kg is implied.

The molecule listed as Cc1nc(C2CCN(C(=O)[C@@H]3CN(C(C)(C)C)C[C@H]3c3ccc(F)cc3F)CC2)n(-c2ccc(Cl)c(C)c2)n1 shows Vd equal to 17

---

assay: Metabolic stability in mouse liver microsomes after 30 mins by LC/MS analysis; type: ADME, Microsome; conditions: read-out: Stability
# label = True if remaining at 0.5 h < 40% else False

Does Cc1nc(C2CCN(C(=O)[C@@H]3CN(C(C)(C)C)C[C@H]3c3ccc(F)cc3F)CC2)n(-c2ccc(Cl)c(C)c2)n1 have remaining at 0.5 h strictly under 40%? True

Does Cc1cc(C2CCN(C(=O)[C@@H]3CN(C(C)(C)C)C[C@H]3c3ccc(F)cc3F)CC2)n(-c2ccc(F)c(Cl)c2)n1 have remaining at 0.5 h strictly under 40%? False

Does Cc1cc(C2CCN(C(=O)[C@@H]3CN(C(C)(C)C)C[C@H]3c3ccc(F)cc3F)CC2)n(-c2ccc(Cl)cc2)n1 have remaining at 0.5 h strictly under 40%? True

Does O=C([C@@H]1CNC[C@H]1c1ccc(F)cc1F)N1CCC(c2ccnn2-c2ccc(F)c(Cl)c2)CC1 have remaining at 0.5 h strictly under 40%? False

Does Cc1cc(C2CCN(C(=O)[C@@H]3CN(C(C)(C)C)C[C@H]3c3ccc(F)cc3F)CC2)n(-c2ccc(Cl)c(Cl)c2)n1 have remaining at 0.5 h strictly under 40%? True

Does Cc1cc(C2CCN(C(=O)[C@@H]3CN(C(C)(C)C)C[C@H]3c3ccc(F)cc3F)CC2)n(-c2cc(Cl)ccc2Cl)n1 have remaining at 0.5 h strictly under 40%? False
